Could you please report measured apparent KD of K4 kissing-loop reporter for the items listed next?
tested on: K4 kissing-loop RNA reporter; assay: apparent KD of K4 kissing-loop reporter; higher = weaker reporter binding; conditions: Eterna round: R107; input ligand: none;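 further: bound reporter read as fluorescence of individual clusters on recovered sequencing chips by microscopy, with normalized cluster intensities fitted with a binding model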
Answers are plain numbers, in µM.

CCCUUAGACUCGGCCGCCACUCGUACCGAGAGCAUGCCACCCAUUAGUGAUGUUAAUUUGUCCUUGAGGACCGGGAGCCUAGGAA [theeternabot_exclusion_KL_Trp_B_44]: 0.98

Go through the list and state apparent KD of K4 kissing-loop reporter for each entry.
1. CUGGGUUGACGAAAAGUCAACAAACGAGAAGGAGCGCACGAAAGUGCAGGUAGGUCGCUCAGUCCAGUGAUGUUGGAUCAUCCAG [#SwitchBubble 9 #K4Late]
2. AAUAAGGAGUGAUGUUCCAAGUGAUGUUAACGAGGACCGGUACGGCCGCCACUCGAUACGGCCGGAAAAUAAAAUAAAAUAAAAU [Same State - Tryptophan A (Freestyle 1)]

1. 0.687
2. 0.134

* * *

test system: MS2 coat protein; assay: apparent KD of MS2 coat protein; designed switch direction (-1 OFF switch, 1 ON switch): -1; higher = weaker reporter binding; details: Eterna round: R95; input ligand: microRNA oligo, concentration not stated
Could you please report measured apparent KD of MS2 coat protein for the items listed next?
Hi, when you answer, please include the unit after the number. Thanks!

Below, 4 sequences whose answers are already recorded.
ACUCCUCCUGUUAGGAUAUGCAUCGGGCUUCCGCAGCAGAAGGAACAUGAGGAUCACCCAUGUCAAAUAAAAUC [Inxebexe] (puzzle: Brourd's mod of Exclusion 4): 18.9 nM
AAAAGGCAGCAGGAUAUAGUCACCAUCGGGUUGCUAGAAGGGCUAACAUGAGGAUCACCCAUGUGGGUGCAAAA [Soinsoan] (puzzle: Exclusion 6): 452 nM
UGUUGGCGAGGAUAUACAUGAGGAUCACCCAUGUGAGAGAAAAAAGUGAGGAAGAAAAGUAGAAGGCGCUGACA [salish99_ex3_r3_045] (puzzle: Exclusion 3): 42.5 nM
CCAGCGUAUGUGAGGAUAUGCUGGUCCUUGGAUCAGCAGAAGGCACAUGAGGAUCACCCAUGUGAGAGCGUUGG [JL bmx4 3.37] (puzzle: Brourd's mod of Exclusion 4): 21.4 nM

Go through the list and state apparent KD of MS2 coat protein for each entry.
1. UUUUUGUGAGGAUAUCAGUAGUAGAACAAUAGUACUACUACUGAGAAGGCACAUGAGGAUCACCCAUGUUCUUC [Fiskers Ex 4 Super stable 44 mod 11] (puzzle: Exclusion 4)
2. GUUAAGGUAGGAUAUACGAUAAUAUAGGGUAGAGAUAUAACACAUGAGGAUCACCCAUGUAGAAGGACCAAUUG [Mat - Exclusion 2 - Mod of my Tesla design - D55] (puzzle: Exclusion 2)
3. AAGAAACAUGAGGAUCACCCAUGUGAGGAUAUGAGUAAGAAAAGAAAAGAAAGAAGAAUCAGAAGGCACAAAGG [salish99-ex1_r3_048] (puzzle: Exclusion 1)
4. GCCAGAGCAGGAUAUUCAGUAUCACACAUGAGGAUCACCCAUGUCCAGCGAAAGCUGGAGGGAGAAGGGCUCUGGC [Fiskers Ex 5 - 13] (puzzle: Exclusion 5)
5. AACCGGCGGACCGAAGCUUUUUGCUUGUUUUAUACUACUACAUGAGGAUCACCCAUGUCGUGGUGGUCUGUUGUAGA [Bibe] (puzzle: Sensor v3, turn-off variant 2)
6. CAUGCUUCGGCAUGUACAAGCUUUUUGCUCGUCUUAUUAACAUGAGGAUCACCCAUGUACAAGAGACCUCAUGUAUU [Sensor v3 - turn-off variant 2 - 11] (puzzle: Sensor v3, turn-off variant 2)

27.1 nM
26.2 nM
38.3 nM
108 nM
15.7 nM
22.9 nM
